- ASSAY SYSTEM: MLKL (full length) (Homo sapiens (Human), UniProt Q8NB16)
- Sequence (Q8NB16 whole entry): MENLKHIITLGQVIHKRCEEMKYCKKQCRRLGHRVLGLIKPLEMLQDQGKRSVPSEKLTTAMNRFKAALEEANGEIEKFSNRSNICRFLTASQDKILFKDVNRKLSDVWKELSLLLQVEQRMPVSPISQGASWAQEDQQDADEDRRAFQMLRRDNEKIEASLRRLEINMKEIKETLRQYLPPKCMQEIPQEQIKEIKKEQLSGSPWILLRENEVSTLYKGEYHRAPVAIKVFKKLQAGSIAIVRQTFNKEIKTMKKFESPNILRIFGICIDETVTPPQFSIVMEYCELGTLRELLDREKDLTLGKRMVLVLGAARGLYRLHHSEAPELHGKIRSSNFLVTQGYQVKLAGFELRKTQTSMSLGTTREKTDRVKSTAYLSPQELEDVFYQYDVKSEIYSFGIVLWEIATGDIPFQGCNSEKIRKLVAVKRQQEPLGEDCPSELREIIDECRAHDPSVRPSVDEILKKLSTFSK
- METHOD NOTES: KINOMEscan binding assay, MLKL (full length)
- PARTICULARS: Table 36
pKd: −log10 of the molar value.
The molecules listed here are annotated with their pKd.
RECORDED METRIC: pKd

* Cc1ncsc1-c1ccc(CNC(=O)[C@@H]2C[C@@H](O)CN2C(=O)[C@@H](NC(=O)CCCCOc2cc(Nc3[nH]nc(-c4ccc(NS(=O)(=O)C(F)F)cc4)c3C(N)=O)ccn2)C(C)(C)C)cc1 | > 8.00
* CCS(=O)(=O)Nc1ccc(-c2n[nH]c(Nc3ccc(C(=O)OCCCCCC(=O)N[C@H](C(=O)N4C[C@H](O)C[C@H]4C(=O)NCc4ccc(-c5scnc5C)cc4)C(C)(C)C)cn3)c2C(N)=O)cc1O[C@@H](C)c1ccc(F)cc1 | > 8.00

----------
A short record of Kd observed with RIP1 (Homo sapiens (Human), UniProt Q13546) follows.
Sequence (Q13546 whole entry): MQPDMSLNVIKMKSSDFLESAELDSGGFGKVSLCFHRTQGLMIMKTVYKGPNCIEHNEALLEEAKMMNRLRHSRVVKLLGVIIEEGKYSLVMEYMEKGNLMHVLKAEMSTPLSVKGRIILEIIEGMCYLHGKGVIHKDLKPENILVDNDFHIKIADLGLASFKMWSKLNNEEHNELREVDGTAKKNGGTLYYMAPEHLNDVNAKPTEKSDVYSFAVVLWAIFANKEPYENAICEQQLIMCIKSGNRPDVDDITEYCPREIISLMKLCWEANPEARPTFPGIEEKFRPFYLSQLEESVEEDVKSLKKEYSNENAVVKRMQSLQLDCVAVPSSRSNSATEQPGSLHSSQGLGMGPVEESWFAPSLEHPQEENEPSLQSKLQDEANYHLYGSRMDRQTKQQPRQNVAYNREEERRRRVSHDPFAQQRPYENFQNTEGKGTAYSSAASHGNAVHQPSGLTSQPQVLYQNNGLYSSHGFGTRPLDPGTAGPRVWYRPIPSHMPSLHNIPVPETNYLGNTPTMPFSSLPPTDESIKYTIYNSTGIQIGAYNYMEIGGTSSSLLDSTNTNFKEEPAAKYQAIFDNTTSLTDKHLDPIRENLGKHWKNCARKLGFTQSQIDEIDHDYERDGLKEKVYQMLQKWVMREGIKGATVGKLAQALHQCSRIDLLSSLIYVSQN
RECORDED METRIC: Kd

• CCS(=O)(=O)Nc1ccc(-c2n[nH]c(Nc3cnccn3)c2C(N)=O)cc1OCc1ccc(Cl)cc1 [Compound 42] = > 30 µM
• CCS(=O)(=O)Nc1ccc(-c2n[nH]c(Nc3cc(C)on3)c2C(N)=O)cc1O[C@@H](C)c1ccc(F)cc1 [Compound 317] = > 30 µM
• NC(=O)c1c(-c2ccc(NS(=O)(=O)C(F)F)c(OCc3ccc(F)c(F)c3)c2)n[nH]c1Nc1ccccn1 [Compound 226] = > 30 µM
• NC(=O)c1c(-c2ccc(NS(=O)(=O)Cc3cccc(Cl)c3)cc2)n[nH]c1Nc1cccc(C(F)(F)F)n1 [Compound 9] = > 30 µM
• Cc1nn(C)cc1Nc1[nH]nc(-c2ccc(NS(=O)(=O)C(F)F)c(O[C@@H](C)c3ccc(F)cc3)c2)c1C(N)=O [Compound 270] = > 30 µM
• Cc1nccc(Nc2[nH]nc(-c3ccc(NS(=O)(=O)C(F)F)c(O[C@@H](C)c4ccc(F)cc4)c3)c2C(N)=O)n1 [Compound 309] = > 30 µM
• NC(=O)c1c(-c2ccc(NS(=O)(=O)C3CCCCC3)cc2)n[nH]c1Nc1cnccn1 [Compound 74] = > 30 µM

----------
Listing of entries alongside the reported Kd.
- ASSAY SYSTEM: MLKL (full length) (Homo sapiens (Human))
- METHOD NOTES: KINOMEscan binding assay, MLKL (full length)
- PARTICULARS: Table 35
RECORDED METRIC: Kd

* NC(=O)c1c(-c2ccc(NS(=O)(=O)C(F)F)cc2)n[nH]c1Nc1cccc(C(F)(F)F)n1 [Compound 53] | < 10 nM
* C[C@H](Oc1cc(-c2n[nH]c(Nc3cnccn3)c2C(N)=O)ccc1NS(=O)(=O)C(F)F)c1ccc(F)cc1 [Compound 223] | < 10 nM
* NC(=O)c1c(-c2ccc(NS(=O)(=O)C(F)F)c(OCc3ccc(F)cc3)c2)n[nH]c1Nc1cnc(C(F)(F)F)cn1 [Compound 246] | < 10 nM
* C[C@H](Oc1cc(-c2n[nH]c(Nc3cnccn3)c2C(N)=O)ccc1NS(=O)(=O)CC(F)(F)F)c1cccc(F)c1 [Compound 265] | < 10 nM
* COc1cnc(Nc2[nH]nc(-c3ccc(NS(=O)(=O)C(F)F)c(OCc4ccc(F)cc4)c3)c2C(N)=O)cn1 [Compound 191] | < 10 nM
* NC(=O)c1c(-c2ccc(NS(=O)(=O)Cc3cccc(Cl)c3)cc2)n[nH]c1Nc1cccc(C(F)(F)F)n1 [Compound 9] | < 10 nM
* COc1cc(Nc2[nH]nc(-c3ccc(NS(=O)(=O)C(F)F)c(O[C@@H](C)c4ccc(F)cc4)c3)c2C(N)=O)nn1C [Compound 294] | < 10 nM
